Test system: THRa:RXRa (NR concentration 90 nM, RXRa partner concentration 90 nM)
Experiment: PBM binding z-score (relative to random genomic background probes); higher = stronger binding; sequences stand for … in GC…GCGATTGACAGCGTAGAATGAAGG
Measurement type: PBM binding z-score

>>> experimental_result("CTCGAAAGGTCGGTTGGGGTGAGTATACGGATAA")
4.95
>>> experimental_result("CTAGCAAGGTGAACAAGGTCGTTGATTACTATTC")
3.18
>>> experimental_result("CGTCAAAGTGCAAGGTAACGTAACAGAAAGCAGC")
1.08
>>> experimental_result("GCAGACAGGTGTAACGCAGGTAACTCAGGGTGGC")
0.816
>>> experimental_result("ATCTCTAGGTAAAGTTCAGTGATAGATCGATAGA")
1.2
>>> experimental_result("ACTAGTTGGTCAGCTTAGGTCACACACAATTCGG")
4.33
>>> experimental_result("CCGACTGGGGCAAGGTTAACATAACGCACAGCCA")
1.37
>>> experimental_result("CCGACTGGGCCATAAGGTTACCATAAGCCAGCCC")
2
>>> experimental_result("TCATATAGGTAAAGGCTAGGTGAAAGTCCGATCT")
1.3
>>> experimental_result("TCATATAGGTAATACAGCTGAAAGTCGGCATCTA")
-0.0502
>>> experimental_result("CCTACTGGGCCAAAGTCATTGATCAGTCAAAGCA")
-0.226
>>> experimental_result("GATACAGGGTCAGCTAGAAGCCAGAGTATGGAAA")
2.53
>>> experimental_result("TCTGCTAGCTCAGTTGGTCAGCTAACGAGCTGCC")
-1.6
>>> experimental_result("TCGAGTAGGATAGGGGCATTCAGAATGGCGTCGA")
0.209
>>> experimental_result("TCTAGCAGGCCAGAGGGTCACCCAAGAGGTACGG")
1.97
>>> experimental_result("GATACAGGGTCAGGTAGAGGCCAGAGTATGGAAA")
3.18
>>> experimental_result("ACTAGTAGTTGACTTAGGGCAACCGATACGACGC")
1.44
>>> experimental_result("GATACAGGGTCAGCTAGAGGCTAGAGTATGGAAA")
2.86
>>> experimental_result("CCCACTGGGGCATAAGGTTACCATAAGCCAGCCC")
1.92
>>> experimental_result("AGTCTAAGTTCAGGACGAGGTAACGTAAAGCACG")
3.56
>>> experimental_result("ACTAGCAGGCCAAGGGTCACTCAGGATTAGTCCG")
2.7
>>> experimental_result("AGTCAATGTTCACTAGGTAACGTAAGATTCAGCT")
0.29
>>> experimental_result("TCATATAGGTAAAAGGAGAAAGTCGGTGTGGTAA")
-0.0526
>>> experimental_result("ACTGGTTGGTCAGCTGAGGTCACACACAATTCGG")
5.13
>>> experimental_result("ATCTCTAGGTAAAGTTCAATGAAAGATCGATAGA")
1.57
>>> experimental_result("GGAACGAGGGCAAGTGGATAGCAGAGTTTGATGG")
1.1

====

System: FXR:RXRa (NR concentration 270 nM, RXRa partner concentration 90 nM)
Experiment: PBM binding z-score (relative to random genomic background probes); higher = stronger binding; sequences stand for … in GC…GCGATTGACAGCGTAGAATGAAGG
Below, each entry is listed alongside its reported PBM binding z-score.
Measurement type: PBM binding z-score

>>> experimental_result("GCTATTAGTAGAAAGGGCAACCGAATGATTCTCG")
-0.219
>>> experimental_result("GCGACTGGGGCATCTGCAGGTTACCATAACTTAA")
-0.256
>>> experimental_result("CGAACGAGGCCATGAGTTGATAGCAAATGCCGAT")
-0.039
>>> experimental_result("TCATATAGGTAACACAGGTGAAAGTCGGCATCTA")
1.43
>>> experimental_result("TCTGCTAGGTCAACGATGGGCAGCTAATCTGCTA")
3.19
>>> experimental_result("ATATGTAGGTTATCGGTTCATTCAGTTTGCGCAT")
1.28
>>> experimental_result("CGAACTAGGTCAAGAACAGTGAATCTCCGCACGC")
2.92
>>> experimental_result("ATATGTAGGTTACGGGTCATTCAGGTTGGTTCGC")
3.73
>>> experimental_result("TCTATTAGTTGATTAGGGCAACCTAAACAGCGGA")
0.561
>>> experimental_result("TCTCGGAGGACACGAAAGGTCCGAGCTCGACATC")
0.78
>>> experimental_result("GCTTACGGGTCAAAGGTTATTGCATGAATAGAAT")
7.79
>>> experimental_result("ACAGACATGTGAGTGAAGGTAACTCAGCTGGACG")
-0.28
>>> experimental_result("TCATATAGGTGAACAGGTGAAAGTCCGTAAGTTA")
1.35
>>> experimental_result("CATACAGGGTCAGCTAGGCCCGAGTAGGGACGGC")
4.65
>>> experimental_result("GGAACGAGGGCAAGTTGATAGCGGAGTTTGATGG")
0.772
>>> experimental_result("TAGCCTAGGTCATTGCGCCAGTATAGTACGCATC")
4.86
>>> experimental_result("CAAACTAGGTAAAAGGTCAAAGTCGAGCCAACCA")
6.21
>>> experimental_result("CTCGACAGGTCGTGCTCAGGTGAGTATACCAAAC")
0.806
>>> experimental_result("CCTAGCAGGCCATTCTGGGTCACTCAAGGCTTGA")
2.69
>>> experimental_result("AGTCAAAGTTCAGGACGAGGTTACGTAAAGCACG")
4.83
>>> experimental_result("CAAACTAGGTCACCGGAAGGCCAAAGTCCGCATG")
4.53
>>> experimental_result("CCTAGCGGGCCAGGGTCACTCAAGCATTTCGCTT")
2.02
>>> experimental_result("TCTATTAGTTGATCAGGGCAACCGAAACAGCGGA")
0.646
>>> experimental_result("AGTCAAAGTTCAGGACGAGTTAACGTAAAGCACG")
3.79
>>> experimental_result("CCTCGGAGGACAACAGGAGGTCAGCGCTGCCAGA")
1.63
>>> experimental_result("GGAACGAGGGCAAGTTTATAGCAGAGTTTGATGG")
0.688
>>> experimental_result("CCTTACGGGTCACTCCAGTTTATAGCATCGGAGT")
5.02
>>> experimental_result("CCGACTGGGGCAGAAAGGTTAACATACCATCCGG")
0.257
>>> experimental_result("CCCAGCAGGCCAGGGTCACTCAAGCATTTCGCTT")
2.03
>>> experimental_result("CCAGACAGTTGAGAAGGTAACTCAGCCTCGATTA")
0.18
>>> experimental_result("AGAATGAGGTTATACGTATATCAGGGAAGAAAGT")
2.23
>>> experimental_result("ATATGTAGGTTAAGGGTCATTCTGGTTGGTTCGC")
5.42
>>> experimental_result("CGTCCACGGTCAAGGTCAGTGAAAGAGACTCGAA")
2.73
>>> experimental_result("CGTCAAAGTTCAACTAAGGTAGCGTAAAGCACGC")
6.83
>>> experimental_result("CGAACTAGGTCAGCACAGGACAGTGAAGGATGAT")
1.86
>>> experimental_result("ATCTCTAGGTCAGACTCAGTTCAGTGAAGAACGC")
2.16
>>> experimental_result("ACTTACGGGTCAACGAGCTTATAGCACGCGTATA")
6.23
>>> experimental_result("TAGCCTTGGTCATGCGGGCCAGTATAGTGTCGGC")
-0.908
>>> experimental_result("CCTAGCAGGTCAGGGTCACTCAAGCATTTCGCTT")
4.58
>>> experimental_result("ATCTCTAGGTAACCAAGTTCAGTAAATGCCGAAC")
0.686
>>> experimental_result("TCATATAGGTAAAGGTGAAAGCCGAACGATATGA")
0.132
>>> experimental_result("ATCTCTAGGTAAGACTCAGTTCAGTGTAGAACGC")
0.302
>>> experimental_result("TCTGCTAGGTCAACAATGGTCAGCTAATCTGCTA")
3.1
>>> experimental_result("ACAGACAGGTGAGTGAAGGTAATTCAGCTGGACG")
0.214
>>> experimental_result("CATACAGGGTCAGCTAGGCGAGAGTAGGGACGGC")
4.5
>>> experimental_result("TTGCCTAGGTCAGATCGGGCCAGTATACGCTATA")
2.67
>>> experimental_result("GGAACGAGGGCAAGTTGATCGCAGAGTTTGATGG")
0.747
>>> experimental_result("TCGAGTAGGGTACCAATGGGGCATTCAGCTTTCT")
-0.419
>>> experimental_result("ATCGAAAGGTCGAAGGTGAGTGTACCCACCCGAA")
4.5
>>> experimental_result("GCGACTGGGGCAAATCAGGTTACCATAAGGTTGG")
0.683
>>> experimental_result("CCTTACTGGTCACTGACAGGTTATAGCATTTGGA")
0.509

Data provenance is the supplement of paper PMC6555819.
